Values compiled from paper PMC10447463.

# Format: physicochemical
# conditionNotes: ThT fluorescence relative to blank (42.1851851851852 a.u.)
measurementType: Tht rel to blank (42.1851851851852)

{"columns": ["substance", "measurementType", "measuredNumber"],
 "data": [
  ["CEFEFQFNMWQ [TM140]", "Tht rel to blank (42.1851851851852)", 6.057],
  ["CKFKQFFNMWQ [CK13]", "Tht rel to blank (42.1851851851852)", 27.7],
  ["QCKIKQII [CK6]", "Tht rel to blank (42.1851851851852)", 2.961],
  ["QCKFKFQFNMWQ [CK7]", "Tht rel to blank (42.1851851851852)", 1.854],
  ["KIKIKIQI [TG13]", "Tht rel to blank (42.1851851851852)", 2.036],
  ["CKFKQFF [CK15]", "Tht rel to blank (42.1851851851852)", 1.34],
  ["RGDKIKIQINMC [psis29]", "Tht rel to blank (42.1851851851852)", 1.396],
  ["CEIEIQI [AR2/ TM142]", "Tht rel to blank (42.1851851851852)", 2.23],
  ["CKIKIQINMWQ [MG1]", "Tht rel to blank (42.1851851851852)", 4.566],
  ["KFKFQFNMWQ [JG4]", "Tht rel to blank (42.1851851851852)", 2.807],
  ["KIKIKIQINMWQ [VH9]", "Tht rel to blank (42.1851851851852)", 1.586],
  ["RGDKIKIQI [MG14]", "Tht rel to blank (42.1851851851852)", 5.578],
  ["QCKIKIQINMWQ [EF-C opt]", "Tht rel to blank (42.1851851851852)", 9.054],
  ["KFKFQFFF [TG12]", "Tht rel to blank (42.1851851851852)", 2.58]
]}
